- Test system: Candida albicans ATCC MYA-573
- TEST NAME: Antifungal activity, growth inhibition (alamar Blue), Candida albicans
- Assay type: cell-based
- CONDITION DESCRIPTION: GI50 versus drug non-addition growth
PARAMETER MEASURED: GI50, 50% growth inhibition concentration, Candida albicans ATCC MYA-573
Quick note: unit goes after the number.

Sample records with GI50, 50% growth inhibition concentration, Candida albicans ATCC MYA-573:
{"SMILES": "Cc1c(-c2ccccc2)c(N2CC[C@H](N(C)C)C2)n2nc(C(C)(C)COCc3ccccc3)nc2c1C#N", "RECORDED VALUE": "0.5 µg/mL"}
{"SMILES": "Cc1c(-c2ccccc2)c(N2CC[C@H](N(C)C)C2)n2cc(C(C)C)nc2c1C#N", "RECORDED VALUE": "1 µg/mL"}
{"SMILES": "Cc1c(-c2ccccc2)c(N2CC[C@H](N(C)C)C2)n2nc(C(C)(C)C)cc2c1C#N", "RECORDED VALUE": "4 µg/mL"}
{"SMILES": "Cc1c(-c2ccccc2)c(N2CC[C@H](N(C)C)C2)n2cc(C(C)(C)C)nc2c1C#N", "RECORDED VALUE": "0.25 µg/mL"}
{"SMILES": "C=C(C)c1nc2c(C#N)c(C)c(-c3ccccc3)c(N3CC[C@H](N(C)C)C3)n2n1", "RECORDED VALUE": "4 µg/mL"}

For the compound Cc1c(-c2ccccc2)c(N2CC[C@H](N(C)C)C2)n2nc(C(C)(C)C)nc2c1C#N , what GI50, 50% growth inhibition concentration, Candida albicans ATCC MYA-573 is on record?
4 µg/mL
